assayName: Oral bioavailability in cannulated Sprague-Dawley rat plasma at 15 mg/kg administered via gavage measured up to 24 hrs post dose by LC/MS/MS analysis
Format: ADME, organism-based
Assign True whenever bioavailability does not fall below 40%; assign False whenever it does.

Solved entries (count: 5):
- querySmiles: "COc1ccc2c(O[C@@H]3C[C@@H](C(=O)N[C@]4(C(=O)NS(=O)(=O)C5CC5)C[C@H]4C4CC4)N(C(=O)[C@@H](NC(=O)O[C@H](C)C(F)(F)F)C(C)(C)C)C3)nc(OC)cc2c1"
  qualitativeLabel: "False"
- querySmiles: "COc1cnc(O[C@@H]2C[C@@H](C(=O)N[C@]3(C(=O)NS(=O)(=O)C4CC4)C[C@H]3C3CC3)N(C(=O)[C@@H](NC(=O)O[C@H](C)C(F)(F)F)C(C)(C)C)C2)c2ccc(Cl)cc12"
  qualitativeLabel: "True"
- querySmiles: "COc1cnc(O[C@@H]2C[C@@H](C(=O)N[C@]3(C(=O)NS(=O)(=O)C4CC4)C[C@H]3C3CC3)N(C(=O)[C@@H](NC(=O)O[C@H](C)C(F)(F)F)C3CCCCC3)C2)c2cc(Cl)ccc12"
  qualitativeLabel: "True"
- querySmiles: "COc1cnc(O[C@@H]2C[C@@H](C(=O)N[C@]3(C(=O)NS(=O)(=O)C4CC4)C[C@H]3C3CC3)N(C(=O)[C@@H](NC(=O)O[C@H](C)C(F)(F)F)C(C)(C)C)C2)c2cc(Cl)ccc12"
  qualitativeLabel: "True"
- querySmiles: "COc1cnc(O[C@@H]2C[C@@H](C(=O)N[C@]3(C(=O)NS(=O)(=O)C4CC4)C[C@H]3C3CC3)N(C(=O)[C@@H](NC(=O)OC(C)(C)C(F)(F)F)C(C)(C)C)C2)c2cc(Cl)ccc12"
  qualitativeLabel: "False"

In: Hi, just wondering whether CC[C@@H]1C[C@]1(NC(=O)[C@@H]1C[C@@H](Oc2ncc(OC)c3ccc(Cl)cc23)CN1C(=O)[C@@H](NC(=O)OC(C)(C)C)C(C)(C)C)C(=O)NS(=O)(=O)C1CC1 shows bioavailability of 40% or higher.
Out: True

In: Hi, just wondering whether COc1cnc(O[C@@H]2C[C@@H](C(=O)N[C@]3(C(=O)NS(=O)(=O)C4CC4)C[C@H]3C3CC3)N(C(=O)[C@@H](NC(=O)O[C@H](C)C(F)(F)F)C(C)(C)C)C2)c2cc(Cl)cc(Cl)c12 shows bioavailability of 40% or higher.
Out: True

----------
assayName: Cytotoxicity against human HepG2 cells assessed as decrease in cell viability
metricName: CC50

Documented CC50 of COc1cnc(O[C@@H]2C[C@@H](C(=O)N[C@]3(C(=O)NS(=O)(=O)C4CC4)C[C@H]3C3CC3)N(C(=O)[C@@H](NC(=O)O[C@H](C)C(F)(F)F)C3CCCCC3)C2)c2cc(Cl)ccc12 : 8 to 14 µM

----------
assayName: Half life in cannulated Sprague-Dawley rat plasma at 5 mg/kg, iv administered as 10 mins infusion by LC/MS/MS analysis
Type: ADME, organism-based
metricName: half-life (h)
Note: unit h is implicit; provide only the numeric part.

- querySmiles: "COc1cnc(O[C@@H]2C[C@@H](C(=O)N[C@]3(C(=O)NS(=O)(=O)C4CC4)C[C@H]3C3CC3)N(C(=O)[C@@H](NC(=O)O[C@H](C)C(F)(F)F)C(C)(C)C)C2)c2cccc(Cl)c12"
  half-life, h: 10.9

Documented half-life of COc1cnc(O[C@@H]2C[C@@H](C(=O)N[C@]3(C(=O)NS(=O)(=O)C4CC4)C[C@H]3C3CC3)N(C(=O)[C@@H](NC(=O)OC(C)(C)C)C(C)(C)C)C2)c2cc(Cl)ccc12 : 10

Documented half-life of COc1cnc(O[C@@H]2C[C@@H](C(=O)N[C@]3(C(=O)NS(=O)(=O)C4CC4)C[C@H]3C3CC3)N(C(=O)[C@@H](NC(=O)O[C@H](C)C(F)(F)F)C3CCCCC3)C2)c2cc(Cl)ccc12 : 8.6

Documented half-life of COc1cnc(O[C@@H]2C[C@@H](C(=O)N[C@]3(C(=O)NS(=O)(=O)C4CC4)C[C@H]3C3CC3)N(C(=O)[C@@H](NC(=O)O[C@H](C)C(F)(F)F)C(C)(C)C)C2)c2cc(Cl)cc(Cl)c12 : 5.5

Documented half-life of COc1cnc(O[C@@H]2C[C@@H](C(=O)N[C@]3(C(=O)NS(=O)(=O)C4CC4)C[C@H]3C3CC3)N(C(=O)[C@@H](NC(=O)O[C@H](C)C(F)(F)F)C(C)(C)C)C2)c2ccc(Cl)cc12 : 10

----------
assayName: Half life in cannulated Sprague-Dawley rat plasma at 5 mg/kg, iv administered as 10 mins infusion by LC/MS/MS analysis
Format: ADME, organism-based
# maps each entry to its half-life
Note: unit h is implicit; provide only the numeric part.

- querySmiles: "C=C[C@@H]1C[C@]1(NC(=O)[C@@H]1C[C@@H](Oc2ncc(OC)c3ccc(Cl)cc23)CN1C(=O)[C@@H](NC(=O)OC(C)(C)C)C(C)(C)C)C(=O)NS(=O)(=O)C1CC1"
  half-life (h): 4.2
- querySmiles: "COc1cnc(O[C@@H]2C[C@@H](C(=O)N[C@]3(C(=O)NS(=O)(=O)C4CC4)C[C@H]3C3CC3)N(C(=O)[C@@H](NC(=O)O[C@H](C)C(F)(F)F)C(C)(C)C)C2)c2cc(Cl)ccc12"
  half-life (h): 10.3

Documented half-life of CC[C@@H]1C[C@]1(NC(=O)[C@@H]1C[C@@H](Oc2ncc(OC)c3ccc(Cl)cc23)CN1C(=O)[C@@H](NC(=O)OC(C)(C)C)C(C)(C)C)C(=O)NS(=O)(=O)C1CC1 : 12

Documented half-life of COc1cnc(O[C@@H]2C[C@@H](C(=O)N[C@]3(C(=O)NS(=O)(=O)C4CC4)C[C@H]3C3CC3)N(C(=O)[C@@H](NC(=O)O[C@H](C)C(F)(F)F)C3CCCC3)C2)c2cc(Cl)ccc12 : 5.8

Documented half-life of COc1cnc(O[C@@H]2C[C@@H](C(=O)N[C@]3(C(=O)NS(=O)(=O)C4CC4)C[C@H]3C3CC3)N(C(=O)[C@@H](NC(=O)OC(C)(C)C(F)(F)F)C(C)(C)C)C2)c2cc(Cl)ccc12 : 14

Documented half-life of COc1ccc2c(O[C@@H]3C[C@@H](C(=O)N[C@]4(C(=O)NS(=O)(=O)C5CC5)C[C@H]4C4CC4)N(C(=O)[C@@H](NC(=O)O[C@H](C)C(F)(F)F)C(C)(C)C)C3)nc(OC)cc2c1 : 3

----------
assayName: Oral bioavailability in Beagle dog plasma at 3 mg/kg administered via gavage measured up to 24 hrs post dose by LC/MS/MS analysis
Type: ADME, organism-based, Canis lupus familiaris
setupConditions: beagle, plasma
metricName: bioavailability (%)
Note: unit % is implicit; provide only the numeric part.

- querySmiles: "COc1cnc(O[C@@H]2C[C@@H](C(=O)N[C@]3(C(=O)NS(=O)(=O)C4CC4)C[C@H]3C3CC3)N(C(=O)[C@@H](NC(=O)O[C@H](C)C(F)(F)F)C3CCCC3)C2)c2cc(Cl)ccc12"
  bioavailability, %: 95

Now let's try a different one.
Documented bioavailability of COc1cnc(O[C@@H]2C[C@@H](C(=O)N[C@]3(C(=O)NS(=O)(=O)C4CC4)C[C@H]3C3CC3)N(C(=O)[C@@H](NC(=O)O[C@H](C)C(F)(F)F)C3CCCCC3)C2)c2cc(Cl)ccc12 : 57.5

----------
Tested on: Hepatitis C virus
assayName: Antiviral activity against HCV genotype 2a JHF-1 in HCV replicon cells assessed as reduction in viral RNA replication by luciferase reporter gene assay
setupConditions: genotype 2a JFH-1
metricName: EC50 (nM)
Note: unit nM is implicit; provide only the numeric part.

- querySmiles: "C=C[C@@H]1C[C@]1(NC(=O)[C@@H]1C[C@@H](Oc2ncc(OC)c3ccc(Cl)cc23)CN1C(=O)[C@@H](NC(=O)OC(C)(C)C)C(C)(C)C)C(=O)NS(=O)(=O)C1CC1"
  observedValue: 217

Documented EC50 of COc1cnc(O[C@@H]2C[C@@H](C(=O)N[C@]3(C(=O)NS(=O)(=O)C4CC4)C[C@H]3C3CC3)N(C(=O)[C@@H](NC(=O)O[C@H](C)C(F)(F)F)C3CCCCC3)C2)c2cc(Cl)ccc12 : 136

----------
testedTarget: Cytochrome P450 3A4 (Homo sapiens, UniProt P08684)
Sequence (P08684 whole entry): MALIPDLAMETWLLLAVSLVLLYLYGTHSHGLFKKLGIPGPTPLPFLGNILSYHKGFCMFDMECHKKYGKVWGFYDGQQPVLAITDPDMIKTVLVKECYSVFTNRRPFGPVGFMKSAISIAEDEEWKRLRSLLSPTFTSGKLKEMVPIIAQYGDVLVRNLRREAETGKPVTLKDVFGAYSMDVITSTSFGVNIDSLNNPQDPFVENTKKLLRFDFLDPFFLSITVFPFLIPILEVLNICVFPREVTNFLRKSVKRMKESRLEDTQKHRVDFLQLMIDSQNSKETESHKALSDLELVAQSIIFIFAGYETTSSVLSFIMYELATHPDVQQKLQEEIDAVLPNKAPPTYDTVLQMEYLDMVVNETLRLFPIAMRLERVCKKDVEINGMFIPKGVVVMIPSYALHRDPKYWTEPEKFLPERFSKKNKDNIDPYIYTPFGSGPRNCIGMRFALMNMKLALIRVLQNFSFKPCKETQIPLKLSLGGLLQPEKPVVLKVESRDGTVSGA
assayName: Inhibition of CYP3A4 (unknown origin)
metricName: pEC50
Scale explanation: pEC50 corresponds to minus log10 of a concentration expressed in moles per litre.

Test item COc1cnc(O[C@@H]2C[C@@H](C(=O)N[C@]3(C(=O)NS(=O)(=O)C4CC4)C[C@H]3C3CC3)N(C(=O)[C@@H](NC(=O)O[C@@H]3C[C@@H]4C[C@@H]4C3)C(C)(C)C)C2)c2cc(Cl)ccc12 ; Cytochrome P450 3A4 (Homo sapiens, UniProt P08684); reported pEC50 was 5.70
